Test system: YSK4;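 note: KINOMEscan kinase panel screen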
Construct: gene MAP3K19
Details: concentration: 1 μM, replicates: in singlicate; n = 1
Mark satisfied for %Inh under 30%, not satisfied if at or over.

Decide: %Inh of Fc1ccc(-c2nn3c(OCC(F)(F)F)cccc3c2-c2ccncc2)cc1 [GW514784] strictly below 30%?
satisfied

Consider O=C(Nc1n[nH]c2cc(-c3cccc(F)c3)ccc12)C1CC1 [SB-735464] . Does its %Inh lie strictly below 30%?
not satisfied

Find out if reported %Inh for NCC(NC(=O)c1cc(-c2cn[nH]c2)c(-c2ccnc3[nH]ccc23)s1)c1ccccc1.O=C(O)C(F)(F)F.O=C(O)C(F)(F)F (stereo not drawn) [GSK1325775] is less than 30%
not satisfied

Report whether reported %Inh is lower than 30% (strictly) for Cc1cn2c(=O)cc(N3CCOCC3)nc2n1Cc1cccc(Cl)c1Cl [GSK2334006]
not satisfied

Determine if CCc1nc(-c2cccc(C)c2)c(-c2ccnc(NCc3ccccc3)c2)s1 shows %Inh strictly lower than 30%.
satisfied

Does this compound meet the criterion %Inh < 30%? c1ccc(-c2n[nH]cc2-c2ccnc3ccccc23)nc1 [GW271431]
satisfied

Does CCCCCc1nc2c(N)ncnc2n1CCCCC [SKF-97255] have %Inh strictly under 30%?
satisfied

Input Nc1nc(-c2ccc3c(N)n[nH]c3c2)cc(N2CCCC2)n1 [GSK2227430] ; condition: %Inh strictly below 30%. Does it hold?
not satisfied

A record lists C[C@@H](Oc1cc(-n2cnc3ccc(NC(=O)NC(C)(C)C)cc32)sc1C(N)=O)c1ccccc1Cl [GSK346294] . Is its %Inh below 30%?
satisfied

Dear reviewer, please state whether Fc1ccc(-c2ncn(CCCN3CCOCC3)c2-c2cccnc2)cc1 [SB-211743] has %Inh strictly beneath 30%.
satisfied

Regarding Cc1c(Cn2c(C)nn3c(=O)cc(N4CCOC(C)C4)nc23)cccc1C(F)(F)F (stereo not drawn) [GSK2344444] , kindly confirm whether its %Inh is beneath 30%.
satisfied

Check if %Inh falls below 30% for Cl.Oc1cccc(Nc2ccnc3cc(-c4ccncc4)ccc23)c1 [GW494601] .
not satisfied

Measured values drawn from paper PMC5540273 for this set.
